Provenance of the data: patent US11945784B2

- system tested: IRE1α (Homo sapiens (Human), UniProt O75460)
- Sequence (O75460 19-977): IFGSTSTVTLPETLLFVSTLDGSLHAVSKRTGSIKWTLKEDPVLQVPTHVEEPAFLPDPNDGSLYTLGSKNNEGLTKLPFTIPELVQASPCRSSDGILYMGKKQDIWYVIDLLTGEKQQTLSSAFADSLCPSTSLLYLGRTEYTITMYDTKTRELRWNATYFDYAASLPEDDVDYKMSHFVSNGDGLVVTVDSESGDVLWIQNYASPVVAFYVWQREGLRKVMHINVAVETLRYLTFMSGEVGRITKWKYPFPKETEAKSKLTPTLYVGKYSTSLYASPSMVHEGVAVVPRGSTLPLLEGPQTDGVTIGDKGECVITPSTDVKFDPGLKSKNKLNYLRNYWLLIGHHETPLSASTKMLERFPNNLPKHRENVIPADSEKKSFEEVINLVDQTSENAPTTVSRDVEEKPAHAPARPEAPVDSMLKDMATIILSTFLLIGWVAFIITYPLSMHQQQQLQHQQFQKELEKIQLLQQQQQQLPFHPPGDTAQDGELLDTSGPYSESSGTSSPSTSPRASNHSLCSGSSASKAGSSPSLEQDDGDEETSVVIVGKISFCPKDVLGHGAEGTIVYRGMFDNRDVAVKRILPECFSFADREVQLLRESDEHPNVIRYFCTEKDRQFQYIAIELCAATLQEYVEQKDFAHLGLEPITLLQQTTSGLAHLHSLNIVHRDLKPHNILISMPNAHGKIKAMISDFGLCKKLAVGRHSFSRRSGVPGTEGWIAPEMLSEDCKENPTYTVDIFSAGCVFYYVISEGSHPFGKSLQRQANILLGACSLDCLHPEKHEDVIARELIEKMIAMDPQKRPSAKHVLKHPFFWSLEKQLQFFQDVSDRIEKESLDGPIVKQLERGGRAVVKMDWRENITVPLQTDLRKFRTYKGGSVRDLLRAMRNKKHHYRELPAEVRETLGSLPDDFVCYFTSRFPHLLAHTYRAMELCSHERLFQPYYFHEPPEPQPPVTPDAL
- measurement notes: In vitro luciferase assay (IRE1α Endoribonuclease Nanoluciferase Assay)
- assay conditions: 293T cells, XBP1 luciferase reporter
measurement kind: EC50

// worked examples, EC50 included
INSERT INTO results (compound, result) VALUES
  ('COc1cc(NS(=O)(=O)c2ccccc2Cl)ccc1/C=C/c1cnc(NC2CCC(N(C)C)CC2)nc1 (stereo not shown) [Compound 55]', '≤ 5 nM'),
  ('COc1nc(NS(=O)(=O)c2ccccc2Cl)ccc1/C=C/c1cnc(NC2CCC(N(C)C)CC2)nc1 (stereo not shown) [Compound 17]', '≤ 5 nM'),
  ('COc1cc(NS(=O)(=O)c2ccccc2Cl)ccc1/C=C/c1cnc(NC2CCC(N)CC2)nc1 (stereo not shown) [Compound 14]', '≤ 5 nM'),
  ('COc1cc(NS(=O)(=O)c2cnccc2Cl)ccc1/C=C/c1cnc(NC2CCC(N(C)C)CC2)nc1 (stereo not shown) [Compound 65]', '≤ 5 nM');

// assay IRE1α (Homo sapiens (Human), UniProt O75460), entry CN(C)C1CCC(Nc2ncc(/C=C/c3ccc(NS(=O)(=O)c4ccccc4Cl)c(F)c3)cn2)CC1 (stereo not shown) [Compound 35] , EC50 value = 5 to 50 nM

Tested on IRE1α (Homo sapiens (Human), UniProt O75460): CCCc1nc(NC2CCC(N)CC2)ncc1/C=C/c1ccc(NS(=O)(=O)c2ccccc2Cl)cc1 (stereo not shown) [Compound 4] . Observed EC50: 50 to 100 nM

Summary: COc1nc(NS(=O)(=O)c2ccccc2Cl)c(F)cc1/C=C/c1cnc(NC2CCC(N(C)C)CC2)nc1 (stereo not shown) [Compound 50] , IRE1α (Homo sapiens (Human), UniProt O75460), EC50 = 5 to 50 nM

Kindly note: IRE1α (Homo sapiens (Human), UniProt O75460), COc1cc(NS(=O)(=O)c2ccccc2Cl)ccc1CCc1cnc(NC2CCC(N)CC2)nc1 (stereo not shown) [Compound 15] , EC50 value reported: 100 to 10000 nM

The reported EC50 value, IRE1α (Homo sapiens (Human), UniProt O75460), for COc1nc(NS(=O)(=O)c2ccccc2Cl)ccc1CCc1cnc(NC2CCC(N(C)C)CC2)nc1 (stereo not shown) [Compound 19] reads 5 to 50 nM

* * *

- system tested: IRE1α (Homo sapiens (Human))
- measurement notes: In vitro luciferase assay (IRE1α Endoribonuclease Nanoluciferase Assay)
- assay conditions: 293T cells, XBP1 luciferase reporter
Entries and their EC50 values follow.

INSERT INTO assay_data (compound, system_tested, measurement_kind, result) VALUES
  ('Cc1nc(NS(=O)(=O)c2ccccc2Cl)ccc1/C=C/c1cnc(NC23CCC(N)(CC2)CC3)nc1', 'IRE1α (Homo sapiens (Human))', 'EC50', '100 to 10000 nM'),
  ('COc1nc(NS(=O)(=O)c2ccccc2Cl)ccc1/C=C/c1cnc(NC2CCC(N3CCSCC3)CC2)nc1 (stereo not shown)', 'IRE1α (Homo sapiens (Human))', 'EC50', '≤ 5 nM'),
  ('CN(C)C1CCC(Nc2ncc(/C=C/c3ccc(NS(=O)(=O)c4ccccc4Cl)nc3)cn2)CC1 (stereo not shown)', 'IRE1α (Homo sapiens (Human))', 'EC50', '≤ 5 nM'),
  ('CN(C)C1CCC(Nc2ncc(/C=C/c3ccc(NS(=O)(=O)c4cccc(Cl)c4Cl)nc3)cn2)CC1 (stereo not shown)', 'IRE1α (Homo sapiens (Human))', 'EC50', '≤ 5 nM'),
  ('NC1CCC(Nc2ncc(/C=C/c3ccc(NS(=O)(=O)c4ccccc4Cl)nn3)cn2)CC1 (stereo not shown)', 'IRE1α (Homo sapiens (Human))', 'EC50', '50 to 100 nM');

Please fill in: EC50 reported for CCc1cc(NS(=O)(=O)c2ccccc2Cl)cnc1CCc1cnc(NC2CCC(N)CC2)nc1 (stereo not shown) = 100 to 10000 nM

// sample Cc1nc(NS(=O)(=O)c2ccccc2Cl)ccc1/C=C/c1cnc(NC2CCC(N(C)C)CC2)nc1 (stereo not shown) , its EC50 was ≤ 5 nM
